# System: Human umbilical vein endothelial cells (HUVEC)
# method.notes: HUVEC proliferation assay, VEGF-dependent growth ([3H]-thymidine incorporation)
# Type: cell-based
# condition.parameters: Homo sapiens, HUVEC, conc. 10000 nM
quantity.kind: inhibition at 10 µM (%)
Give a bare numeral; the unit % is implied.

Example entries begin here.
COCCOc1cc2ncnc(NC3=CC(=O)C(Oc4ccc(C(=O)/C=C/c5ccccc5)cc4)=CC3=O)c2cc1OC [Example 55]    99
COCCOc1cc2ncnc(NC3=CC(=O)C(Oc4ccc(OC)cc4)=CC3=O)c2cc1OC [Example 32]    98
COCCOc1cc2ncnc(NC3=CC(=O)C(C)=CC3=O)c2cc1OC [Example 15]    96

Reported inhibition at 10 µM for COCCOc1cc2ncnc(NC3=CC(=O)C(Oc4cccnc4)=CC3=O)c2cc1OC [Example 91] was 93

----------
# target.of.assay: human KDR (VEGF-receptor-2) (Homo sapiens, UniProt P35968)
# Construct: beginning at Met-806; (5′-ATG GAT CCA GAT GM CTC CCA TTG) and ending at Val-1356; made in house
# Sequence (P35968 806-1356): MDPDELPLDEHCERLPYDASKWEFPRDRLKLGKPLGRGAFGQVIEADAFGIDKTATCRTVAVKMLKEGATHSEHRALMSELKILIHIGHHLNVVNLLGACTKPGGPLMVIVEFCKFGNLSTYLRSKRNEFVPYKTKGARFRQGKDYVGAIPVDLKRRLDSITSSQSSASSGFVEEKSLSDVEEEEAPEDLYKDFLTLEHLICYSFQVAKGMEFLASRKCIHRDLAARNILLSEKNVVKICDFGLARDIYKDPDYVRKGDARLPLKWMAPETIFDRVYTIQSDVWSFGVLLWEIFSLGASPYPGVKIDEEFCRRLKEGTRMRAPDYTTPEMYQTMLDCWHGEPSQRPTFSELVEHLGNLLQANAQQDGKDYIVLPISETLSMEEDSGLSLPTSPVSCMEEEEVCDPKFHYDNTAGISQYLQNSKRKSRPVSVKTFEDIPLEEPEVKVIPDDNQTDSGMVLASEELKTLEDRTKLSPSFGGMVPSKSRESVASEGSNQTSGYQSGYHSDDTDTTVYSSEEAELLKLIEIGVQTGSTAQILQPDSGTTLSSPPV
# method.notes: KDR kinase enzyme assay (DELFIA, KDR-IC-Flag, poly(Glu4-Tyr) peptide)
# Assay type: biochemical
# condition.parameters: Concentration 1000 nM; ATP conc. 10 μM
quantity.kind: inhibition at 1 µM (%)
Give a bare numeral; the unit % is implied.

COCCOc1cc2ncnc(NC3=CC(=O)C(Oc4ccc(OC)cc4)=CC3=O)c2cc1OC    96

Reported inhibition at 1 µM for COCCOc1cc2ncnc(NC3=CC(=O)C(Oc4ccc(F)cc4)=CC3=O)c2cc1OC was 96

Reported inhibition at 1 µM for COCCOc1cc2ncnc(NC3=CC(=O)C(Oc4ccc(C#N)cc4)=CC3=O)c2cc1OC was 96

Reported inhibition at 1 µM for COCCOc1cc2ncnc(NC3=CC(=O)C(Oc4cccc(OC)c4)=CC3=O)c2cc1OC was 96

----------
# target.of.assay: KDR (Homo sapiens)
# Sequence (P35968 20-1356): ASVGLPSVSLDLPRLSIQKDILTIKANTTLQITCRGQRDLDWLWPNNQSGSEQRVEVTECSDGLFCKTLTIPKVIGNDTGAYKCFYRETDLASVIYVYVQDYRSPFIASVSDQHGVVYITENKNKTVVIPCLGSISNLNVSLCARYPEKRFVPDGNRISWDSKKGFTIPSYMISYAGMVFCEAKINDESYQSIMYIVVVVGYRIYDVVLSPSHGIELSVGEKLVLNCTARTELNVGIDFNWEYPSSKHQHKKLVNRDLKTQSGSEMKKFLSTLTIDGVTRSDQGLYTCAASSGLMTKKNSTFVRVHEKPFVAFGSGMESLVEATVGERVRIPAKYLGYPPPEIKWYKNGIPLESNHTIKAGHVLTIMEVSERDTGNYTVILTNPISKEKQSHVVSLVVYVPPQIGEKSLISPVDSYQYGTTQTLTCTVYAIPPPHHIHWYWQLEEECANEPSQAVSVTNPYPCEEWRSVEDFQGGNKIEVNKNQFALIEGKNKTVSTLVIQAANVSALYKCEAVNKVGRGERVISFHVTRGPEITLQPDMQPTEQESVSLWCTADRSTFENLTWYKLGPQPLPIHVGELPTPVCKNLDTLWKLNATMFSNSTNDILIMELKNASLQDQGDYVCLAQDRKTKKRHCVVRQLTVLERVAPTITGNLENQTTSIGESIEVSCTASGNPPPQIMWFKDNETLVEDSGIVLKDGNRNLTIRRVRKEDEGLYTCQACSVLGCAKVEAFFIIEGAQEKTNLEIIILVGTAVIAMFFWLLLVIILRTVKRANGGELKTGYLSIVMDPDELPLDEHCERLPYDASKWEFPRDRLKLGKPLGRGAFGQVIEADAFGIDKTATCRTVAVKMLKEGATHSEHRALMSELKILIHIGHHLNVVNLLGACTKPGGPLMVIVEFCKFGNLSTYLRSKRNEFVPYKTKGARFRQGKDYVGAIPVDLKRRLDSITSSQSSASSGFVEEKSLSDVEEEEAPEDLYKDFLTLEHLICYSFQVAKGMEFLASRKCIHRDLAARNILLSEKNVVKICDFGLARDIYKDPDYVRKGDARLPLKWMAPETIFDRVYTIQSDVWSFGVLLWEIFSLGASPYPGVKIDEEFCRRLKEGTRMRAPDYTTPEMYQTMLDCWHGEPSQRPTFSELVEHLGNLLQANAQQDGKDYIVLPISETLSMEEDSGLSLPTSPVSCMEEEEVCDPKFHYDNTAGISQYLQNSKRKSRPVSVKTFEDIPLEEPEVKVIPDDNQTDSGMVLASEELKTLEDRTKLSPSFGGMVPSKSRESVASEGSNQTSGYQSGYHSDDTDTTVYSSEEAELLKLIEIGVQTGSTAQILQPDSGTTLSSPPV
# method.notes: cell-based
# condition.parameters: read-out: % Inhibition of KDR kinase autophosphorylation in KDR15 cells, compound conc. 1000 nM
Mark no for inhibition at 1 µM values under 60%, and yes for everything at or above.

Example entries and their recorded answers appear below.
COCCOc1cc2ncnc(NC3=CC(=O)C(Oc4ccc5cc(Br)ccc5c4)=CC3=O)c2cc1OC    yes
COCCOc1cc2ncnc(NC3=CC(=O)C(Oc4cccc(C(C)=O)c4)=CC3=O)c2cc1OC    no
COCCOc1cc2ncnc(NC3=CC(=O)C(Oc4ccc(Oc5ccccc5)cc4)=CC3=O)c2cc1OC    no
COc1cc2ncnc(NC3=CC(=O)C4(C)OC4C3=O)c2cc1OC (stereo not shown)    no

Threshold query (inhibition at 1 µM >= 60%) on COCCOc1cc2ncnc(NC3=CC(=O)C(Oc4ccc(CCC(=O)OC)cc4)=CC3=O)c2cc1OC yes

Threshold query (inhibition at 1 µM >= 60%) on COCCOc1cc2ncnc(NC3=CC(=O)C(Oc4ccccc4OCc4ccccc4)=CC3=O)c2cc1OC yes

Threshold query (inhibition at 1 µM >= 60%) on COCCOc1cc2ncnc(NC3=CC(=O)C(Oc4ccc(C(=O)c5ccccc5)cc4)=CC3=O)c2cc1OC yes

----------
# target.of.assay: human KDR (VEGF-receptor-2) (Homo sapiens, UniProt P35968)
# Construct: beginning at Met-806; (5′-ATG GAT CCA GAT GM CTC CCA TTG) and ending at Val-1356; made in house
# method.notes: KDR kinase enzyme assay (DELFIA, KDR-IC-Flag, poly(Glu4-Tyr) peptide)
# Assay type: biochemical
# condition.parameters: Concentration 1000 nM; ATP conc. 1000 μM; read-out: % Inhibition
Mark label 0 for inhibition at 1 µM values under 60%, and label 1 for everything at or above.

Example entries and their recorded answers appear below.
COc1cc2ncnc(NC3=CC(=O)C=C(C)C3=O)c2cc1OC [Example 7]    label 1
COc1cc2ncnc(NC3=CC(=O)C(Cl)=CC3=O)c2cc1OC [Example 2]    label 1
COCCOc1cc2ncnc(NC3=CC(=O)C(OCc4ccccc4)=CC3=O)c2cc1OC [Example 96]    label 1

Threshold query (inhibition at 1 µM >= 60%) on COc1cc2ncnc(NC3=CC(=O)C(N4CCOCC4)=CC3=O)c2cc1OC [Example 84] label 1

Threshold query (inhibition at 1 µM >= 60%) on COc1cc2ncnc(NC3=CC(=O)C(C)=CC3=O)c2cc1OC [Example 4] label 0

Threshold query (inhibition at 1 µM >= 60%) on COCCOc1cc2ncnc(NC3=C(Sc4ccccc4)C(=O)C=C(OC)C3=O)c2cc1OC [Example 18] label 0

Threshold query (inhibition at 1 µM >= 60%) on COc1cc2ncnc(NC3=CC(=O)C(C(C)C)=CC3=O)c2cc1OC [Example 9] label 0
